target: JNK2α2/SAPK1c, active (Homo sapiens); assay: Biochemical inhibition of JNK2; conditions: Table 1, compounds of formula (I); mean of n repeats
readout.label: EC50

IN: Check JNK2α2/SAPK1c, active (Homo sapiens) data and give EC50 for Cc1nn(CCN2CCCC2)cc1NC(=O)c1cccc(-n2cc(NC(=O)Nc3ccccc3Cl)cn2)c1 [Example I-104] .
OUT: < 200 nM

IN: Check JNK2α2/SAPK1c, active (Homo sapiens) data and give EC50 for Cc1cc(NC(=O)c2cccc(-n3cc(NC(=O)Nc4ccccc4Cl)cn3)c2)ccn1 [Example I-10] .
OUT: < 200 nM

Next:
IN: Check JNK2α2/SAPK1c, active (Homo sapiens) data and give EC50 for O=C(Nc1cnn(-c2cccc(C(=O)Nc3cnn(CCN4CCCC4)c3)c2)c1)Nc1ccccc1Cl [Example I-101] .
OUT: < 200 nM

IN: Check JNK2α2/SAPK1c, active (Homo sapiens) data and give EC50 for CC(C)n1cc(NC(=O)c2cccc(-n3cc(NC(=O)Nc4ccccc4Cl)cn3)c2)cn1 [Example I-86] .
OUT: 200 to 1000 nM

IN: Check JNK2α2/SAPK1c, active (Homo sapiens) data and give EC50 for Cc1cc(NC(=O)c2cccc(-n3cc(NC(=O)Nc4ccccc4C)cn3)c2)ccn1 [Example I-51] .
OUT: < 200 nM

IN: Check JNK2α2/SAPK1c, active (Homo sapiens) data and give EC50 for Cc1cccc(CNC(=O)c2cccc(-n3cc(NC(=O)Nc4ccccc4Cl)cn3)c2)n1 [Example I-11] .
OUT: 200 to 1000 nM

IN: Check JNK2α2/SAPK1c, active (Homo sapiens) data and give EC50 for Cc1cc(NC(=O)c2cccc(-n3cc(NC(=O)Nc4ccccc4Cl)cn3)c2)cc(C)n1 [Example I-22] .
OUT: 200 to 1000 nM

IN: Check JNK2α2/SAPK1c, active (Homo sapiens) data and give EC50 for Cc1ccc(CNC(=O)c2cccc(-n3cc(NC(=O)Nc4ccccc4Cl)cn3)c2)cn1 [Example I-9] .
OUT: 200 to 1000 nM

----------
molecular target: JNK1α1/SAP1α, Active (Homo sapiens, UniProt P45983); test: Biochemical inhibition of JNK1; conditions: Table 1, compounds of formula (I); mean of n repeats
Sequence (P45983 1-384 isoform P45983-2): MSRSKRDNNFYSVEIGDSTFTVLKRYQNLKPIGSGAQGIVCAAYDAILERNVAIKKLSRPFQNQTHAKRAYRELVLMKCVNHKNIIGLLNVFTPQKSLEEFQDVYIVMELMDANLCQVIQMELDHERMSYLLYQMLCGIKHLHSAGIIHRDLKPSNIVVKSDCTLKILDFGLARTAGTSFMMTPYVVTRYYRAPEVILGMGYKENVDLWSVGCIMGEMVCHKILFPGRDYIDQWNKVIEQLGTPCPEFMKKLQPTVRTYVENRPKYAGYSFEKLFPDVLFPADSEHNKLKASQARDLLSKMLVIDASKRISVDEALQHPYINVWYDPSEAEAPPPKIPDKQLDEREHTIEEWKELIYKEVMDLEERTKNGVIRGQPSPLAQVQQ
pEC50: −log10 of the molar value.
readout.label: pEC50

Examples with their reported pEC50 follow.
IN: Check the records and state pEC50 for O=C(Nc1cnn(-c2cccc(C(=O)Nc3cnn(CCN4CCCC4)c3)c2)c1)Nc1ccccc1Cl
OUT: < 6.00

IN: Check the records and state pEC50 for Cc1cc(NC(=O)c2cccc(-n3cc(NC(=O)Nc4ccccc4C)cn3)c2)ccn1
OUT: 6.00 to 6.70

IN: Check the records and state pEC50 for Cc1nn(CCN2CCCC2)cc1NC(=O)c1cccc(-n2cc(NC(=O)Nc3ccccc3Cl)cn2)c1
OUT: < 6.00

Next:
IN: Check the records and state pEC50 for Cc1ccc(CNC(=O)c2cccc(-n3cc(NC(=O)Nc4ccccc4Cl)cn3)c2)cn1
OUT: < 6.00

IN: Check the records and state pEC50 for Cc1cc(NC(=O)c2cccc(-n3cc(NC(=O)Nc4ccccc4Cl)cn3)c2)cc(C)n1
OUT: < 6.00

IN: Check the records and state pEC50 for Cn1ccc(NC(=O)c2cccc(-n3cc(NC(=O)Nc4ccccc4Cl)cn3)c2)n1
OUT: 6.00 to 6.70

----------
molecular target: JNK2α2/SAPK1c, active (Homo sapiens, UniProt P45984); assay: Biochemical inhibition of JNK2; details: Table 1, compounds of formula (I); mean of n repeats
Sequence (P45984 whole entry): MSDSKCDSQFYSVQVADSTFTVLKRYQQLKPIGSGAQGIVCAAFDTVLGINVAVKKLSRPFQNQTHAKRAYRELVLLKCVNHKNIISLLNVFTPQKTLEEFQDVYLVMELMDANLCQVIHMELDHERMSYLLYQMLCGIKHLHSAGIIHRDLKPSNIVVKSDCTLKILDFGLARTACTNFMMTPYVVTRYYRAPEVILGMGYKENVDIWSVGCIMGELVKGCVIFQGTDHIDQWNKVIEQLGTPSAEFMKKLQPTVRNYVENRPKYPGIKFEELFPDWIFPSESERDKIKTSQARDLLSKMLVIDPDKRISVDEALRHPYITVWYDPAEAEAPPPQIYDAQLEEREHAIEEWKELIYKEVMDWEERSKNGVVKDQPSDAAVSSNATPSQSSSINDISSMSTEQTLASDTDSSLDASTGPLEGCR
pEC50: −log10 of the molar value.
readout.label: pEC50

IN: Check the records and state pEC50 for Cn1nc(C2CC2)cc1NC(=O)c1cccc(-n2cc(NC(=O)Nc3ccccc3Cl)cn2)c1
OUT: > 6.70

Next:
IN: Check the records and state pEC50 for Cc1ccc(-c2ncn(-c3ccc(Nc4nccc(-c5cccc(N6CCOCC6)c5)n4)cc3)n2)cn1 [SR-3306, reference compound]
OUT: 6.00 to 6.70

IN: Check the records and state pEC50 for Cn1ccc(NC(=O)c2cccc(-n3cc(NC(=O)Nc4ccccc4Cl)cn3)c2)n1
OUT: > 6.70

----------
target: JNK3/SAPK1b, Active (activated JNK3α1) (Homo sapiens); assay: Biochemical inhibition of JNK3 (HTRF enzyme inhibition assay); settings: Table 2, compounds of formula (II); read-out: JNK3 (nM) JNK activity (IC50)
Reported IC50 values follow for various molecules

IN: Check the records and state IC50 for CC(C)NC(=O)N1CCC(Nc2ncc3ccc(=O)n(C4CCCC4)c3n2)CC1
OUT: 200 to 1000 nM

Next:
IN: Check the records and state IC50 for CC(C)n1c(=O)ccc2cnc(NC3CCN(Cc4ccccc4)CC3)nc21
OUT: > 1000 nM

IN: Check the records and state IC50 for Cn1c(=O)ccc2cnc(N[C@H]3CC[C@H](O)CC3)nc21
OUT: < 200 nM

IN: Check the records and state IC50 for O=c1ccc2cnc(N[C@H]3CC[C@H](O)CC3)nc2n1C1CCCC1
OUT: < 200 nM

IN: Check the records and state IC50 for O=C(NC1CCCC1)N[C@H]1CC[C@H](Nc2ncc3ccc(=O)[nH]c3n2)CC1
OUT: 200 to 1000 nM

----------
Reported EC50 values follow for various compounds
target: JNK3/SAPK1b, Active (activated JNK3α1) (Homo sapiens, UniProt P53779); assay: Biochemical inhibition of JNK3 (HTRF enzyme inhibition assay); details: Table 1, compounds of formula (I); mean of n repeats
Sequence (P53779 1-422 isoform P53779-2): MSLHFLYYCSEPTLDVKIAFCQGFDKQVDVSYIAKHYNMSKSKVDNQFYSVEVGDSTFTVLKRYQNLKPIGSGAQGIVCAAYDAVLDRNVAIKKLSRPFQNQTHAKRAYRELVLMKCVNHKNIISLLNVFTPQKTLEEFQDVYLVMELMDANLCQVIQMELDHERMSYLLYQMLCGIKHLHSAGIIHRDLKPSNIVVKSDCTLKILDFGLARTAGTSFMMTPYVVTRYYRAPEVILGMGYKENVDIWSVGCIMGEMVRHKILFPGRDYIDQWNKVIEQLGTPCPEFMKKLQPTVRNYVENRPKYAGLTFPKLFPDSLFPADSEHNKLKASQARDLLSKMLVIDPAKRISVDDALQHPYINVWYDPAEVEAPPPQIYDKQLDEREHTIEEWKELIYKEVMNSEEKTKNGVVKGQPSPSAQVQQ

Examples with their reported EC50 follow.
IN: Check the records and state EC50 for Cc1nn(CCN2CCCC2)cc1NC(=O)c1cccc(-n2cc(NC(=O)Nc3ccccc3Cl)cn2)c1 [Example I-104]
OUT: < 200 nM

IN: Check the records and state EC50 for Cn1nc(C2CC2)cc1NC(=O)c1cccc(-n2cc(NC(=O)Nc3ccccc3Cl)cn2)c1 [Example I-89]
OUT: < 200 nM

IN: Check the records and state EC50 for O=C(Nc1cnn(-c2cccc(C(=O)Nc3cnn(CCN4CCCC4)c3)c2)c1)Nc1ccccc1Cl [Example I-101]
OUT: < 200 nM

IN: Check the records and state EC50 for Cc1ccc(CNC(=O)c2cccc(-n3cc(NC(=O)Nc4ccccc4Cl)cn3)c2)cn1 [Example I-9]
OUT: 200 to 1000 nM

IN: Check the records and state EC50 for Cn1ccc(NC(=O)c2cccc(-n3cc(NC(=O)Nc4ccccc4Cl)cn3)c2)n1 [Example I-98]
OUT: < 200 nM

IN: Check the records and state EC50 for Cc1cccc(CNC(=O)c2cccc(-n3cc(NC(=O)Nc4ccccc4Cl)cn3)c2)n1 [Example I-11]
OUT: 200 to 1000 nM

IN: Check the records and state EC50 for CC(C)n1cc(NC(=O)c2cccc(-n3cc(NC(=O)Nc4ccccc4Cl)cn3)c2)cn1 [Example I-86]
OUT: < 200 nM

IN: Check the records and state EC50 for Cc1cc(NC(=O)c2cccc(-n3cc(NC(=O)Nc4ccccc4C)cn3)c2)ccn1 [Example I-51]
OUT: < 200 nM

IN: Check the records and state EC50 for Cc1cc(NC(=O)c2cccc(-n3cc(NC(=O)Nc4ccccc4Cl)cn3)c2)ccn1 [Example I-10]
OUT: < 200 nM

Note: attention shifts to another entry.
IN: Check the records and state EC50 for Cc1cc(NC(=O)c2cccc(-n3cc(NC(=O)Nc4ccccc4Cl)cn3)c2)cc(C)n1 [Example I-22]
OUT: < 200 nM

----------
target: JNK1α1/SAP1α, Active (Homo sapiens); test: Biochemical inhibition of JNK1; conditions: Table 2, compounds of formula (II); read-out: JNK1 (nM) JNK activity (IC50)
readout.label: IC50

IN: Check the records and state IC50 for c1cc2cnc(NC3CCNCC3)nc2nc1N1CCCC1
OUT: > 1000 nM

IN: Check the records and state IC50 for CC(C)n1c(=O)ccc2cnc(NC3CCN(Cc4ccccc4)CC3)nc21
OUT: 200 to 1000 nM

IN: Check the records and state IC50 for c1cc2cnc(NC3CCNCC3)nc2nc1C1CC1
OUT: > 1000 nM

IN: Check the records and state IC50 for O=C(NC1CCCC1)N[C@H]1CC[C@H](Nc2ncc3ccc(=O)[nH]c3n2)CC1
OUT: 200 to 1000 nM

IN: Check the records and state IC50 for Cn1c(=O)ccc2cnc(N[C@H]3CC[C@H](O)CC3)nc21
OUT: < 200 nM

IN: Check the records and state IC50 for O=c1ccc2cnc(N[C@H]3CC[C@H](O)CC3)nc2n1C1CCCC1
OUT: < 200 nM

IN: Check the records and state IC50 for CC(C)NC(=O)N1CCC(Nc2ncc3ccc(=O)n(C4CCCC4)c3n2)CC1
OUT: 200 to 1000 nM

IN: Check the records and state IC50 for CCNC(=O)N1CCC(Nc2ncc3ccc(C4CC4)nc3n2)CC1
OUT: > 1000 nM
